- SYSTEM_TESTED: T1, 15-mer peptide LGIWGCSGKLICTTT (SEQ ID NO:1) (HIV, not fully specified; cysteine pairing not given here)
- T1 construct: also called U1731DB060-1; U173DB060-1
- T1 peptide: LGIWGCSGKLICTTT
- PROTOCOL_TEXT: indirect ELISA; 15-mer peptide coated 1 ug/ml in DTT; negative control well of this row (not explained)
No end group written: not given here.
OBSERVED_PROPERTY: ELISA OD (Neg. Cont.) (OD)
Provide the reading as a plain figure in OD.

{"columns": ["BINDER", "VALUE_UNIT", "MEASURED"],
 "data": [
  ["HIV-binding peptide #11Q (antibody, V domains shown, Heavy chain only with variant CH1/CH2 (hinge cysteines replaced by serines)) VH: QVQLQESGGGVVQPGRSLRLSCAASGFTFSSYAIHWVRQAPGKGLEWVAVISYDGSNRYYADSVKGRFTISRDNSKNTLYLQMNSLRPEDTAVYYCARDRFSAVASTPTYHNYFYMDVWGKGTTVTVSS", "OD", 0.104]
]}

**Query** # ELISA OD (Neg. Cont.) lookup, item HIV-binding peptide #8 (antibody, human IgG1, kappa, V domains shown, Recombinant, fully human immunoglobulin; also called U1205DB020-8) VH: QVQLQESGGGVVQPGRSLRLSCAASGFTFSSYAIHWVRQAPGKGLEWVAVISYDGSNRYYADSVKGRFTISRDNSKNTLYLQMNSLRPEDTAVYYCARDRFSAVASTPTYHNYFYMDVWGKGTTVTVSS VL: DIQMTQSPSSLSASVGDRVTITCQASQDISNYLAWYQQKPGQAPRLLIYDASNLETGVPSRFSGSGSGTDFTLTISSLQPEDLATYYCQQYDNLPYTFGQGTKLEIKR
**Result** 0.088

**Query** # ELISA OD (Neg. Cont.) lookup, item HIV-binding peptide #10Q (antibody, V domains shown, also called antibody#10-5Q; U1205DB020-10) VH: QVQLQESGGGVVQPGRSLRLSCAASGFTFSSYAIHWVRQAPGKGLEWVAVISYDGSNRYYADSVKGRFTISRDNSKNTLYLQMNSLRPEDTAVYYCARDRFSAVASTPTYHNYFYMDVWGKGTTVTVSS
**Result** 0.084
